B1: CPEB3 Ribozyme (parent)
chain: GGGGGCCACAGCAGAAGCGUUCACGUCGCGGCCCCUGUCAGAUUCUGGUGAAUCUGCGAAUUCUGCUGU

Variants of: B1
method-summary: self-cleavage, relative activity (ratio to wild type); higher = more cleavage; co-transcriptional
Kindly state self-cleavage for each of the entries shown.

Request: Provide measured self-cleavage value, entry: GGCGGCCACAGCAGAAGCGUUCACGUCGCGGCCCCUGUCAGAUUCUGAUGAAUCUGCGAAUUCUGCUGU [G3C G48A]
Result: 0.117

Request: Give self-cleavage for the following variant: GGGGGUCACAGCAGAAGCGUUCACGUCGCGGCCGCUGUCAGAUUCUGGUGAAUCUGCGAAUUCUGCUGU [C6U C34G]
Result: 0.188

Request: Assign self-cleavage to the following record: GGGGGCCACAGCAGAAGCGUUGACGUCGCGGCCCCUGUCAGAUUCUGGUGAAUCUGCGAAUUCUGCUGG [C22G U69G]
Result: 0.349

Request: For the variant GGGGGCCACAGCAGAAGCGUUCACGUCGCGGCCCCUGUAAGAUUCUGGUGAAUCUGCGAAUCCUGCUGU [C39A U62C] , report self-cleavage.
Result: 0.595

Request: Determine its reported self-cleavage: GGGGGCCACAGCAGAAGCGUUCACGUCGCGGCCCCUGUCACAUUCUGGUGAAUAUGCGAAUUCUGCUGU [G41C C54A]
Result: 0.931

Request: Supply measured self-cleavage of GGGGGCCACAGCAGAAGCGUUCACGUCGCGGCCCCGGUCAGAUUCUGGUGCAUCUGCGAAUUCUGCUGU [U36G A51C] in your reply.
Result: 0.25

Request: Give the reported value of self-cleavage for this record: GGGGGACACAGCAGAAGCGUUCACGUCGCGGCCCCUGUCAGAUUCUGGUGACUCUGCGAAUUCUGCUGU [C6A A52C]
Result: 0.519

Request: For the variant GGGGGCCACAGCAGAAGCGUUCACUUCGCGGCCCCGGUCAGAUUCUGGUGAAUCUGCGAAUUCUGCUGU [G25U U36G] , report self-cleavage.
Result: 0.155

Request: Quick one: give measured self-cleavage for GGGGGCCACAGCAGAAGCGUUCACGUCGCGGCCCCUGUCAGAUACUGGUGACUCUGCGAAUUCUGCUGU [U44A A52C]
Result: 0.912

Request: // Input: GGGGGCCACAGCAGAAGCGUUCACGUCGCGGCCCCUGUCAGAUUCUUGUGAAUCUGCGUAUUCUGCUGU [G47U A59U] . Output its self-cleavage only.
Result: 0.833

Request: Please look at this variant and report its self-cleavage: CGCGGCCACAGCAGAAGCGUUCACGUCGCGGCCCCUGUCAGAUUCUGGUGAAUCUGCGAAUUCUGCUGU [G1C G3C]
Result: 0.0906

Request: # return recorded self-cleavage for entry GGGGGCCACAGGAGAAGCGUUCACGUCGCGGCCCCUGUCAGAUUCUGGUGAAUCUGCGAUUUCUGCUGU [C12G A60U]
Result: 0.367

Request: Give me measured self-cleavage, please, for this variant: UGGGGCCACAGCAUAAGCGUUCACGUCGCGGCCCCUGUCAGAUUCUGGUGAAUCUGCGAAUUCUGCUGU [G1U G14U]
Result: 0.0869

Request: Entry GGGGGCCACAGCAGAAGCGUUCACGGCGCGGCCCCUGUCAGAUUCUGGUGAAUCUGCCAAUUCUGCUGU [U26G G58C] needs its self-cleavage filled in; supply it.
Result: 0.799

Request: Hello, please tell me recorded self-cleavage for this one: GGGGGCCACAGCAGAAGCGUUCACGUCGCGGCCCCCGUCAGAUUCUGGUGAGUCUGCGAAUUCUGCUGU [U36C A52G]
Result: 0.855

Request: Give self-cleavage for GGGGGCCACAGCAGAAGAGUUCACGUCGCGGCCCCUCUCAGAUUCUGGUGAAUCUGCGAAUUCUGCUGU [C18A G37C]
Result: 0.213

Request: Return self-cleavage for the following variant: GGGGGCCACAGCAGACGCGUUCACGUCGCGGCCCCUGUCAGAUUCUGGUGAAUCUGCGAAUUCUGCCGU [A16C U67C]
Result: 0.289

Request: Let me know recorded self-cleavage for GGGGGCCACAGCAGAAGCGUUCACGUCGCGGCCCCUGUCAGAUUCUGGUGAAUAUGCGAAUUCUGCGGU [C54A U67G] , thanks.
Result: 0.887

Request: Provide measured self-cleavage value, entry: AGGGGCCACAGCAGAAGCGUUCACGUCGCGGCCCCUGUCAGUUUCUGGUGAAUCUGCGAAUUCUGCUGU [G1A A42U]
Result: 0.105

Request: Indicate its recorded self-cleavage; the variant in question is GGGGACCACAGCAGAAGCGUUCACGUCGGGGCCCCUGUCAGAUUCUGGUGAAUCUGCGAAUUCUGCUGU [G5A C29G]
Result: 0.175

Request: Read the entry GGGGGCGACAGCAGAAGCGUUCACGUCGCGGCCCCUGUCAAAUUCUGGUGAAUCUGCGAAUUCUGCUGU [C7G G41A] and write its reported self-cleavage.
Result: 0.131

Request: Return reported self-cleavage. Input variant: GGGGGCCACAGCAGAAGCGUUCACGUCGCGGCCCCUGUCGGAUUCUGGUGAAUCUGCGAAUUCUGCAGU [A40G U67A]
Result: 0.941
